Reported inhibition at 1 µg/mL values for the following compounds.
Test system: L1210
ASSAY: Cytotoxicity against mouse L1210 cells at 1 ug/ml after 48 hrs
Format: functional
MEASUREMENT_CONTEXT: L1210, 48 h
Numbered stars: 1 amine (or outer) side, 2 acyl side, 3 side chain; on linkers, the order of the positions; unused ones are H or OH. Bridge positions count the residues as written; N and C are the ends. Square brackets hold non-standard residues; d marks the D form. Peptide text beside a SMILES is read from it. I, II: the chains in the order shown. Actinocin(9to1) = Cc1c2oc3c(C)ccc(C(=O)[*:1])c3nc-2c(C(=O)[*:2])c(N)c1=O; NMeV = CN[C@H](C(=O)O)C(C)C; Sar = CNCC(=O)O
Put down the number, then write its unit next to it.

INSERT INTO measurements (compound, recorded_metric, val) VALUES
  ('Cc1c2oc3c(C)ccc(C(=O)N[C@@H]4C(=O)N[C@H](C(C)C)C(=O)N5CCC[C@H]5C(=O)N(C)CC(=O)N(C)[C@@H](C(C)C)C(=O)O[C@@H]4C)c3nc-2c(C(=O)N[C@@H]2C(=O)N[C@H](C(C)C)C(=O)N3CCC[C@H]3C(=O)N(C)CC(=O)N(C)[C@@H](C(C)C)C(=O)O[C@@H]2C)c(NCCNC2CC(C)(C)N([O])C(C)(C)C2)c1=O', 'inhibition at 1 µg/mL', '71%'),
  ('Cc1c2oc3c(C)ccc(C(=O)N[C@@H]4C(=O)N[C@H](C(C)C)C(=O)N5CCC[C@H]5C(=O)N(C)CC(=O)N(C)[C@@H](C(C)C)C(=O)O[C@@H]4C)c3nc-2c(C(=O)N[C@@H]2C(=O)N[C@H](C(C)C)C(=O)N3CCC[C@H]3C(=O)N(C)CC(=O)N(C)[C@@H](C(C)C)C(=O)O[C@@H]2C)c(NCCCNC2CC(C)(C)N([O])C(C)(C)C2)c1=O', 'inhibition at 1 µg/mL', '45%'),
  ('Cc1c2oc3c(C)ccc(C(=O)N[C@@H]4C(=O)N[C@H](C(C)C)C(=O)N5CCC[C@H]5C(=O)N(C)CC(=O)N(C)[C@@H](C(C)C)C(=O)O[C@@H]4C)c3nc-2c(C(=O)N[C@@H]2C(=O)N[C@H](C(C)C)C(=O)N3CCC[C@H]3C(=O)N(C)CC(=O)N(C)[C@@H](C(C)C)C(=O)O[C@@H]2C)c(N)c1=O [DACTINOMYCIN] (I: T[dV]P[Sar][NMeV] / II: T[dV]P[Sar][NMeV]; ester I:1-I:C, II:1-II:C; linker I:N-II:N via Actinocin(9to1))', 'inhibition at 1 µg/mL', '97%');

Shifting focus to the compound that follows.
Value of inhibition at 1 µg/mL reported for the compound Cc1c2oc3c(C)ccc(C(=O)N[C@@H]4C(=O)N[C@H](C(C)C)C(=O)N5CCC[C@H]5C(=O)N(C)CC(=O)N(C)[C@@H](C(C)C)C(=O)O[C@@H]4C)c3nc-2c(C(=O)N[C@@H]2C(=O)N[C@H](C(C)C)C(=O)N3CCC[C@H]3C(=O)N(C)CC(=O)N(C)[C@@H](C(C)C)C(=O)O[C@@H]2C)c(NC2CC(C)(C)N([O])C(C)(C)C2)c1=O is 57%
